Each recorded value in this set is attributed to PubChem BioAssay (Tox21).

Assay: qHTS assay to identify small molecule agonists of the estrogen receptor alpha (ER-alpha) signaling pathway in the presence of an antagonist - cell viability counter screen (AID 1259386);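 also: cells exposed to compounds for 22 h at 37 °C before the viability read; nearly all actives have a fitted effect of over 30% in size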
Conditions: VM7Luc4E2 viability, CellTiter-Fluor fluorescence, 22 h; series mostly up to 92.4 µM
Records with an inconclusive call do not appear. The source made the active and inactive calls. Calls follow the shape of the dose curve; as a rule, active = well fitted cell-killing curve with a large enough effect in the repeat runs; inconclusive = weak or mixed curves, or effect the other way; inactive = no such curve, though single readings can be large or run the other way.
Outcome field: choose from Yes = active, No = inactive

Assay outcome for CCCCCCCCCCCCCCCCCCOS(=O)(=O)O : what was it?
No

Queued: O=CC1CC=CCC1 (configuration not stated)
No

Queued: COS(=O)(=O)C(F)(F)F
No

Queued: Clc1ccc(Cn2c(CN3CCCC3)nc3ccccc32)cc1
No

Queued: CC(CC=O)c1ccccc1 (configuration not stated)
No

Queued: CCOC(=O)NCCOc1ccc(Oc2ccccc2)cc1
No

Queued: Cc1cccc(C)c1OCC(=O)N[C@@H](Cc1ccccc1)[C@@H](O)C[C@H](Cc1ccccc1)NC(=O)[C@H](C(C)C)N1CCCNC1=O
Yes

Queued: CCCCCCCCCCCCN1CCCCCC1=O
No

Queued: CCCCCCCCCOS(=O)(=O)O
No

Queued: CN(C)CCCN1c2ccccc2Sc2ccccc21
No

Queued: CC(C)(O)c1ccc(CNC(=O)c2cccnc2Oc2ccc(F)cc2)cc1
No

Queued: CC(C)=CCC/C(C)=C/CC/C(C)=C/CO
No

###

Assay: qHTS assay for small molecule agonists of the antioxidant response element (ARE) signaling pathway (AID 743202); as to activation: % is scaled to controls: 0 for no effect and ±100 for the full control effect
Details: HepG2 ARE-bla reporter, beta-lactamase FRET, 16 h; series mostly up to 73.3 µM
Inconclusive results are not listed. The source made the active and inactive calls. Calls follow the shape of the dose curve; as a rule, active = well fitted activation curve with a large enough effect in the signal ratio in the repeat runs (not every such curve was filed as active); inconclusive = weak or mixed curves, or effect the other way; inactive = no such curve, though single readings can be large or run the other way; the % refers to the signal ratio.
Outcome field: choose from true (1) = active, false (0) = inactive

Assay outcome for C/C=C(/C(=C/C)c1ccc(OC(C)=O)cc1)c1ccc(OC(C)=O)cc1 : what was it?
true (1)

Queued: CC(C)Cc1ccc(C(C)C(=O)OCc2ccccn2)cc1 (configuration not stated)
false (0)

Queued: CO[C@@H]1[C@H](OC(=O)/C=C/C=C/C=C/C=C/C(=O)O)CC[C@]2(CO2)[C@H]1[C@@]1(C)O[C@@H]1CC=C(C)C
true (1)

Queued: CC1OC(=O)C(C)OC1=O (configuration not stated)
false (0)

Queued: c1ccc(CNCCNCc2ccccc2)cc1
false (0)

Queued: CC1=CC[C@H](C(C)C)C=C1
true (1)

Queued: CC(=O)NO
false (0)

Queued: CC[N+](C)(CC)CCOC(=O)C(O)(c1ccccc1)C1CCCCC1 (configuration not stated)
false (0)

Queued: O=S(=O)(Oc1ccc(Cl)cc1)c1ccccc1
false (0)

Queued: CCCCC
false (0)

Queued: Cc1ccccc1S(=O)(=O)O
false (0)

Queued: CCOC(=O)C1=C[C@]2(CC)CCCN3CCc4c(n1c1ccccc41)[C@@H]32
false (0)

Queued: C=C(C)C(=O)OCC
false (0)

Queued: CCO[Si](CCCCl)(OCC)OCC
false (0)

Queued: O=C(O)CC(=O)C(=O)O
false (0)

Queued: S=C([S-])NCCNC(=S)[S-].[Mn+2]
true (1)

Queued: COc1cc(C(=O)OCCCN2CCCN(CCCOC(=O)c3cc(OC)c(OC)c(OC)c3)CC2)cc(OC)c1OC
true (1)

Queued: CC(=O)c1cccc([N+](=O)[O-])c1
false (0)

Queued: COC(=O)c1ccc(I)cc1S(=O)(=O)NC(=O)Nc1nc(C)nc(OC)n1
false (0)

Queued: C[N+](C)(C)CCOC(=O)CCC(=O)OCC[N+](C)(C)C
false (0)

Queued: O=[N+]([O-])c1ccc2[nH]ncc2c1
false (0)

Queued: NCC(=O)O
false (0)

Queued: C=CC1CC2C=CC1C2 (configuration not stated)
false (0)

Queued: Nc1ncn([C@H]2C[C@H](O)[C@@H](CO)O2)c(=O)n1
false (0)

Queued: O=C(NCC1CN(c2ccc(N3CCOCC3=O)cc2)C(=O)O1)c1ccc(Cl)s1 (configuration not stated)
false (0)

Queued: COc1ccc2cccc(CCNC(C)=O)c2c1
false (0)

Queued: Nc1cccc([N+](=O)[O-])c1
false (0)
